- Test system: CCRIS mutagenicity, Ames/micronucleus/aberration tests
- test.details: CCRIS mutagenicity studies
- measurement.conditions: Test System: AMES SALMONELLA TYPHIMURIUM; Strain/Indicator: TA100; Metabolic Activation: RAT, LIVER, S-9, AROCLOR 1254; Method: SPIRAL ASSAY
Activity calls are given as the source filed them. The rule behind the calls is not given here.
Just give me one of these, please: true (1) for active, false (0) for inactive

Answered cases to consult:
{"compound.smiles": "CC(=O)Nc1ccc2c(c1)Cc1ccccc1-2", "target.desc": "CCRIS mutagenicity, Ames/micronucleus/aberration tests", "group": "false (0)"}
{"compound.smiles": "Cc1c2ccccc2c(C)c2c1ccc1ccccc12", "target.desc": "CCRIS mutagenicity, Ames/micronucleus/aberration tests", "group": "true (1)"}
{"compound.smiles": "CC1=CC(=O)c2ccccc2C1=O", "target.desc": "CCRIS mutagenicity, Ames/micronucleus/aberration tests", "group": "false (0)"}

Attention now turns to another entry.
Could you check what this test reported for `O=[N+]([O-])c1ccc2c(c1)Cc1ccccc1-2` ? true (1)

====

- Test system: CCRIS mutagenicity, Ames/micronucleus/aberration tests
- test.details: CCRIS mutagenicity studies
- measurement.conditions: Test System: AMES SALMONELLA TYPHIMURIUM; Strain/Indicator: TA100; Metabolic Activation: NONE; Method: STANDARD PLATE
Activity calls are given as the source filed them. How the calls were made is not given here.
measured.quantity: mutagenic call

{"compound": "O=[N+]([O-])c1cc(C(F)(F)F)cc([N+](=O)[O-])c1Cl", "mutagenic call": "inactive; negative"}
{"compound": "O[C@@H]1[C@H]2O[C@H]2c2c(ccc3ccccc23)[C@H]1O", "mutagenic call": "active; positive"}
{"compound": "CCN(N)CC", "mutagenic call": "inactive; negative"}
{"compound": "O=C(Cl)OCC1c2ccccc2-c2ccccc21", "mutagenic call": "inactive; negative"}
{"compound": "O=C(O)[C@@H]1CS[C@H](c2ccccc2O)N1C(=O)CCS", "mutagenic call": "inactive; negative"}
{"compound": "Oc1ccc2c(c1)OCO2", "mutagenic call": "inactive; negative"}
{"compound": "Cc1cc(=O)c2c(O)c3c(O)cc(O)c4c5c(O)cc(O)c6c(O)c7c(=O)cc(C)c8c1c2c(c34)c(c65)c78", "mutagenic call": "inactive; negative"}
{"compound": "CC1(C)C(C=C(Cl)Cl)C1C(=O)OCc1cccc(Oc2ccccc2)c1 (stereo not drawn)", "mutagenic call": "inactive; negative"}
{"compound": "Cc1ccc(S(=O)(=O)OCc2ccc([N+](=O)[O-])cc2)cc1", "mutagenic call": "active; positive"}
{"compound": "N#CSCSC#N", "mutagenic call": "inactive; negative"}

Look at this compound and give its reported mutagenic call. `Nc1ccc(/C=C/c2ccc(N)cc2)cc1` inactive; negative

Look at this compound and give its reported mutagenic call. `O=CC1C=COC=C1` inactive; negative

Look at this compound and give its reported mutagenic call. `CCCCCCCCCCCCCCCCCCCCCCO` inactive; negative

====

- Test system: CCRIS mutagenicity, Ames/micronucleus/aberration tests
- test.details: CCRIS mutagenicity studies
- measurement.conditions: Test System: AMES SALMONELLA TYPHIMURIUM; Strain/Indicator: TA100; Metabolic Activation: HAMSTER, LIVER, S-9, AROCLOR 1254 (10%); Method: PREINCUBATION
Activity calls are given as the source filed them. No rule for the calls is given here.
Just give me one of these, please: class 1 for active, class 0 for inactive

Answered cases to consult:
{"compound": "Cc1ccc(N)c(N)c1", "group": "class 1"}
{"compound": "O=S1(=O)CC=CC1", "group": "class 0"}
{"compound": "OCC(CBr)(CBr)CBr", "group": "class 0"}
{"compound": "Nc1ccc2c(c1)C(=O)/C(=N/Nc1ccc(-c3ccc(N/N=C4/C(=O)c5c(N)cc(S(=O)(=O)O)cc5C=C4S(=O)(=O)O)cc3)cc1)C(S(=O)(=O)O)=C2", "group": "class 0"}

Could you check what this test reported for `O=C(CCl)c1ccccc1` ? class 0

Could you check what this test reported for `O=NN(CCO)CCO` ? class 1

Could you check what this test reported for `CC(C)Nc1ccccc1` ? class 0

Could you check what this test reported for CCC(Cl)C(Cl)C(Cl)CC(Cl)C(Cl)C(C)Cl (stereo not given) ? class 0

Could you check what this test reported for `CCOP(=S)(OCC)OP(=S)(OCC)OCC` ? class 0

Could you check what this test reported for `COC(C)(C)CC(C)=O` ? class 0

Could you check what this test reported for `c1ccc(CSCc2ccccc2)cc1` ? class 0

Could you check what this test reported for `Nc1ccc(C(=O)O)cc1` ? class 0

Could you check what this test reported for `NCCCCCCN` ? class 0

Could you check what this test reported for `C=CC(=O)OCCN(C)C` ? class 0
